# tested_target: NS3 (Hepatitis C virus, UniProt A3EZJ3)
# Sequence (A3EZJ3 whole entry, the tested form may be a part): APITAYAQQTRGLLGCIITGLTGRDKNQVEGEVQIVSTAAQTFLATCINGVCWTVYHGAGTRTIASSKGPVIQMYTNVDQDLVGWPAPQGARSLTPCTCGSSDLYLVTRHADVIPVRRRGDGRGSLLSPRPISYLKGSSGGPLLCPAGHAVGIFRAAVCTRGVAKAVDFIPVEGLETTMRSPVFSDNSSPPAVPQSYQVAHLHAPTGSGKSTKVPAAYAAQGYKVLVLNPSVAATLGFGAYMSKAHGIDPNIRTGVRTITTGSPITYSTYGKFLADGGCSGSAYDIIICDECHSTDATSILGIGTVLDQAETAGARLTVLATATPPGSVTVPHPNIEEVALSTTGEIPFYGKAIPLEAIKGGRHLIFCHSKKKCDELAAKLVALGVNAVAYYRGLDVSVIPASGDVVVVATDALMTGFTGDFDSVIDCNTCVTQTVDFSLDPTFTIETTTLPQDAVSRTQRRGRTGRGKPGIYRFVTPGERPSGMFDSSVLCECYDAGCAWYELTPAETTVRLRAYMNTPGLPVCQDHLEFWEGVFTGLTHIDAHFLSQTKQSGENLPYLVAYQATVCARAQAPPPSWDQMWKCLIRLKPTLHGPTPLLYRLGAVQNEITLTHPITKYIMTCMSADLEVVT
# run_description: Inhibitory activity against hepatitis C virus (HCV) NS3 protease (isolated domain)
# Parameters: species or system Hepacivirus hominis
value_kind: Ki (nM)
Please state the figure in nM; there is no need to write the unit.

Sample Ac-DEMEEC-OH — what was its Ki?
500

---

Reported values of Ki for individual entries
# tested_target: NS3 (Hepatitis C virus, UniProt A3EZJ3)
# run_description: Inhibitory activity against hepatitis C virus (HCV) NS3 protease (isolated domain)
# Set-up: species or system Hepacivirus hominis
Where a SMILES comes first, the peptide text is derived from it. [ ]: non-standard residue; d: D form. Dip = N[C@H](C(=O)O)C(c1ccccc1)c1ccccc1; 2Nal = N[C@@H](Cc1ccc2ccccc2c1)C(=O)O; dGla = N[C@H](CC(C(=O)O)C(=O)O)C(=O)O; Cha = N[C@@H](CC1CCCCC1)C(=O)O
Please state the figure in nM; there is no need to write the unit.

molecule	unit_info	Ki
CC[C@H](C)[C@H](NC(=O)[C@@H](NC(=O)[C@H](CCC(=O)O)NC(=O)[C@H](CC(=O)O)NC(C)=O)C(c1ccccc1)c1ccccc1)C(=O)N[C@@H](CC1CCCCC1)C(=O)N[C@@H](CS)C(=O)O (Ac-DE[Dip]I[Cha]C-OH)	nM	30
CC[C@H](C)[C@H](NC(=O)[C@@H](NC(C)=O)C(c1ccccc1)c1ccccc1)C(=O)N[C@@H](CC1CCCCC1)C(=O)N[C@@H](CS)C(=O)O (Ac-[Dip]I[Cha]C-OH)	nM	50000
CC(=O)N[C@@H](CC(=O)O)C(=O)N[C@@H](CCC(=O)O)C(=O)N[C@H](C(=O)N[C@@H](CCC(=O)O)C(=O)N[C@@H](CC1CCCCC1)C(=O)N[C@@H](CS)C(=O)O)C(c1ccccc1)c1ccccc1 (Ac-DE[Dip]E[Cha]C-OH)	nM	25
CC[C@H](C)[C@H](NC(=O)[C@@H](NC(=O)[C@H](CCC(=O)O)NC(C)=O)C(c1ccccc1)c1ccccc1)C(=O)N[C@@H](CC1CCCCC1)C(=O)N[C@@H](CS)C(=O)O (Ac-E[Dip]I[Cha]C-OH)	nM	1200
CSCC[C@H](NC(=O)[C@H](CCC(=O)O)NC(=O)[C@H](CC(=O)O)NC(C)=O)C(=O)N[C@@H](CCC(=O)O)C(=O)N[C@@H](CC1CCCCC1)C(=O)N[C@@H](CS)C(=O)O (Ac-DEME[Cha]C-OH)	nM	400

Enter reported Ki observed with NS3 (Hepatitis C virus, UniProt A3EZJ3) for CC(=O)N[C@H](C(=O)N[C@@H](CCC(=O)O)C(=O)N[C@@H](CC1CCCCC1)C(=O)N[C@@H](CS)C(=O)O)C(c1ccccc1)c1ccccc1 (Ac-[Dip]E[Cha]C-OH)
15000

Further, for CC(=O)N[C@@H](CC(=O)O)C(=O)N[C@@H](CCC(=O)O)C(=O)N[C@@H](CC(C)C)C(=O)N[C@@H](CCC(=O)O)C(=O)N[C@@H](CC1CCCCC1)C(=O)N[C@@H](CS)C(=O)O ?
60

Further, for CC(=O)N[C@@H](CC(=O)O)C(=O)N[C@H](CCC(=O)O)C(=O)N[C@@H](CC(C)C)C(=O)N[C@@H](CCC(=O)O)C(=O)N[C@@H](CC1CCCCC1)C(=O)N[C@@H](CS)C(=O)O ?
23

Further, for CC[C@H](C)[C@H](NC(=O)[C@H](CC(C)C)NC(=O)[C@@H](CC(C(=O)O)C(=O)O)NC(=O)[C@H](CC(=O)O)NC(C)=O)C(=O)N[C@@H](CC1CCCCC1)C(=O)N[C@@H](CS)C(=O)O (Ac-D[dGla]LI[Cha]C-OH) ?
0.75

Further, for CSCC[C@H](NC(=O)[C@H](CCC(=O)O)NC(=O)[C@H](CC(=O)O)NC(C)=O)C(=O)N[C@@H](CCC(=O)O)C(=O)N[C@@H](Cc1ccc2ccccc2c1)C(=O)N[C@@H](CS)C(=O)O (Ac-DEME[2Nal]C-OH) ?
180

Further, for CC(=O)N[C@@H](CCC(=O)O)C(=O)N[C@H](C(=O)N[C@@H](CCC(=O)O)C(=O)N[C@@H](CC1CCCCC1)C(=O)N[C@@H](CS)C(=O)O)C(c1ccccc1)c1ccccc1 (Ac-E[Dip]E[Cha]C-OH) ?
700

Further, for CC(=O)N[C@@H](CCC(=O)O)C(=O)N[C@@H](CC1CCCCC1)C(=O)N[C@@H](CS)C(=O)O (Ac-Glu-[Cha]-Cys-OH) ?
230000
